The values you see were collected from paper PMC8699473.

- protocol: Freeze-thaw stability in spiked pooled human plasma
- Format: physicochemical
- reported conditions: validation standard LLOV
Lab note: compare Freeze-Thaw Accuracy [%] against 90%. Equal or greater, write yes (1). Smaller, write no (0).

>>> category("CC1(C)CCC(CN2CCN(c3ccc(C(=O)NS(=O)(=O)c4ccc(NCC5CCOCC5)c([N+](=O)[O-])c4)c(Oc4cnc5[nH]ccc5c4)c3)CC2)=C(c2ccc(Cl)cc2)C1 [Venetoclax]")
"yes (1)"
>>> category("O=C1CN2Cc3c(ccc(Cl)c3Cl)N=C2N1 [Anagrelide]")
"yes (1)"
>>> category("Nc1cccc2c1C(=O)N(C1CCC(=O)NC1=O)C2=O (centres unmarked) [Pomalidomide]")
"no (0)"
>>> category("O=C1CCC(N2C(=O)c3ccccc3C2=O)C(=O)N1 (centres unmarked) [Thalidomide]")
"no (0)"
>>> category("Cc1[nH]c2ccccc2c1CCNCc1ccc(/C=C/C(=O)NO)cc1 [Panobinostat]")
"yes (1)"
>>> category("Cc1ccc(Nc2nccc(N(C)c3ccc4c(C)n(C)nc4c3)n2)cc1S(N)(=O)=O [Pazopanib]")
"yes (1)"
>>> category("O=C(c1cc(Cc2n[nH]c(=O)c3ccccc23)ccc1F)N1CCN(C(=O)C2CC2)CC1 [Olaparib]")
"yes (1)"

* * *

- protocol: Short-term stability in spiked pooled human plasma (bench-top, 4 °C, 56 °C)
- reported conditions: validation standard LLOV
measured metric: Short-time stability (1h, 56°C) Accuracy [%]

>>> result("Cc1cn(-c2cc(NC(=O)c3ccc(C)c(Nc4nccc(-c5cccnc5)n4)c3)cc(C(F)(F)F)c2)cn1")
"28.5%"
>>> result("CCN1CCN(Cc2ccc(Nc3ncc(F)c(-c4cc(F)c5nc(C)n(C(C)C)c5c4)n3)nc2)CC1")
"27.4%"
>>> result("Cc1nc(Nc2ncc(C(=O)Nc3c(C)cccc3Cl)s2)cc(N2CCN(CCO)CC2)n1")
"65.9%"
>>> result("CNC(=O)c1ccc(N2C(=S)N(c3ccc(C#N)c(C(F)(F)F)c3)C(=O)C2(C)C)cc1F [Enzalutamide]")
"50.0%"
>>> result("CNC(=O)c1cc(Oc2ccc(NC(=O)Nc3ccc(Cl)c(C(F)(F)F)c3)cc2)ccn1")
"28.2%"
>>> result("CN(C)C/C=C/C(=O)Nc1cc2c(Nc3ccc(F)c(Cl)c3)ncnc2cc1O[C@H]1CCOC1")
"7.2%"
>>> result("NC(=O)c1cccc2cn(-c3ccc([C@@H]4CCCNC4)cc3)nc12")
"46.8%"
>>> result("CS(=O)(=O)CCNCc1ccc(-c2ccc3ncnc(Nc4ccc(OCc5cccc(F)c5)c(Cl)c4)c3c2)o1")
"-24.8%"
>>> result("CNC(=O)c1ccc(N2C(=S)N(c3cnc(C#N)c(C(F)(F)F)c3)C(=O)C23CCC3)cc1F [Apalutamide]")
"37.6%"
>>> result("CC(=O)Nc1cccc(-n2c(=O)n(C3CC3)c(=O)c3c(Nc4ccc(I)cc4F)n(C)c(=O)c(C)c32)c1")
"0.4%"
>>> result("CCCS(=O)(=O)Nc1ccc(F)c(C(=O)c2c[nH]c3ncc(-c4ccc(Cl)cc4)cc23)c1F")
"34.3%"
>>> result("Cc1[nH]c2ccccc2c1CCNCc1ccc(/C=C/C(=O)NO)cc1")
"1.9%"
>>> result("N#CC[C@H](C1CCCC1)n1cc(-c2ncnc3[nH]ccc23)cn1")
"63.3%"
